Values of pIC50 reported for EGFR-TK (tyrosine kinase domain of EGFR) (Homo sapiens, UniProt P00533) appear below.
Scale explanation: pIC50 corresponds to minus log10 of a concentration expressed in moles per litre.

INSERT INTO measurements (smi, property_label, measured_result) VALUES
  ('CCCCCc1cc(O)c2c(c1)OC(C)(C)c1ccc(C)cc1-2', 'pIC50', 7.10),
  ('C=C(C)[C@@H]1CCC(C)=C[C@H]1c1c(O)cc(CCCCC)cc1O', 'pIC50', 7.49);

Could you now look at the following molecule, please?
Notebook: `CCCCCc1cc(O)c(C/C=C(\C)CCC=C(C)C)c(O)c1` , pIC50 read as 7.52
